study.target: T1, HisβTrCP/Skp1 and HisβTrCP/GSTSkp1 (immobilised on NTA Biacore chip) (UniProt Q9Y297 175-605; P63208 1-163)
T1 construct: SPR: KD values from both surfaces (with or without the GST moiety) were averaged to give the apparent KD; also called βTrCP surfaces
T1 sequence (Q9Y297 175-605, chain 1 of 2): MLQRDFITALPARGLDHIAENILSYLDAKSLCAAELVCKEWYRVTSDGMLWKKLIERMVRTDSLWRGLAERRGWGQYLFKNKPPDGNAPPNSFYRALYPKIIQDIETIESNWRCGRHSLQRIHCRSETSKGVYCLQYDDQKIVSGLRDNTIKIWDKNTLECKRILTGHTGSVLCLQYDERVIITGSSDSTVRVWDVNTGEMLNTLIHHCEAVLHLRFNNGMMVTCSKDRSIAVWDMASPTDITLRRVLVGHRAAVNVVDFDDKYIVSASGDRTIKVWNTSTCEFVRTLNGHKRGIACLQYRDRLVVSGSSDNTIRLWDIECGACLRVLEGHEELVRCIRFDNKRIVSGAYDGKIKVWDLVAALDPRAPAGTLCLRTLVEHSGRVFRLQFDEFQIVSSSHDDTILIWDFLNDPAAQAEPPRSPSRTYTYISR
T1 sequence (P63208 whole entry, chain 2 of 2): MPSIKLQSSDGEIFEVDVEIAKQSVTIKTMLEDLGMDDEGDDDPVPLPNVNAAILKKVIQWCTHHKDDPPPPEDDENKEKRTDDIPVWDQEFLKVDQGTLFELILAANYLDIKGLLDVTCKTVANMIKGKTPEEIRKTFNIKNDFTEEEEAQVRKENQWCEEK
experimental.details: SPR (Biacore T200), single cycle run up to 1e-6 M, steady-state fit of the run shown; Rmax 2.156 RU, Chi² 0.00730 RU² [E]
Starred links: 1 amine or outer side, 2 acyl side, 3 side chain; linkers in the order of their positions; H or OH if unused. Non-standard residues stand in square brackets, D forms with d. *: point of attachment. E(Me) = COC(=O)CC[C@H](N[*:1])C(=O)[*:2]; Phe(3-F) = N[C@@H](Cc1cccc(F)c1)C(=O)O; Tos = Cc1ccc(S(=O)(=O)*)cc1

[
  {
    "binder": "Tos-[dD]EG[Phe(3-F)]W[E(Me)]-NH2 (also called UBP032) [Ts-dEGF(3F)WE(Me)-NH2]",
    "Kd": "108 nM"
  }
]
